System: G. duodenalis BRIS/91/HEPU/1279
experiment.summary: Primary Giardia screen at 10 µM (live-cell imaging, automated counting)
Assay type: cell-based, Giardia duodenalis
assay.setup: 48 h, first singlicate assay

>  <compound>
CC(C)n1cc2cc(C(=O)NCCCN3CCCc4ccccc43)sc2c1

>  <target.entity>
G. duodenalis BRIS/91/HEPU/1279

>  <% Inhibition n=1 48h [%]>
3.6

$$$$
>  <compound>
Cc1noc2ncnc(N3CCCC(C(=O)NC4CCCCCC4)C3)c12 (stereo not drawn)

>  <target.entity>
G. duodenalis BRIS/91/HEPU/1279

>  <% Inhibition n=1 48h [%]>
0.0

$$$$
>  <compound>
O=C(Cc1ccccc1[N+](=O)[O-])N1CCN(C(=O)c2ccc3c(c2)OCO3)CC1

>  <target.entity>
G. duodenalis BRIS/91/HEPU/1279

>  <% Inhibition n=1 48h [%]>
9.4

$$$$
>  <compound>
Cc1ccccc1NC(=O)c1nc(S(C)(=O)=O)ncc1N(Cc1ccco1)Cc1sccc1C

>  <target.entity>
G. duodenalis BRIS/91/HEPU/1279

>  <% Inhibition n=1 48h [%]>
11.7

$$$$
>  <compound>
CSc1ccc(-c2noc(-c3ccc4c(=O)n(Cc5ccccc5)c(=O)[nH]c4c3)n2)cc1

>  <target.entity>
G. duodenalis BRIS/91/HEPU/1279

>  <% Inhibition n=1 48h [%]>
6.5

$$$$
>  <compound>
Cc1cc(NC(=O)c2ccc([N+](=O)[O-])cc2)n(-c2nc3ccccc3[nH]2)n1

>  <target.entity>
G. duodenalis BRIS/91/HEPU/1279

>  <% Inhibition n=1 48h [%]>
6.0

$$$$
>  <compound>
Cc1nnc(-c2nnc(NCc3ccccc3)c3ccccc23)o1

>  <target.entity>
G. duodenalis BRIS/91/HEPU/1279

>  <% Inhibition n=1 48h [%]>
1.6

$$$$
>  <compound>
CCc1nc(N2CCCC2=O)sc1C(=O)Nc1ccc(C)c(C)c1

>  <target.entity>
G. duodenalis BRIS/91/HEPU/1279

>  <% Inhibition n=1 48h [%]>
0.0

$$$$
>  <compound>
CCOC(=O)c1sc(N2C(=O)C(O)=C(C(=O)c3ccco3)C2c2ccc(OC)cc2)nc1C (stereo not drawn)

>  <target.entity>
G. duodenalis BRIS/91/HEPU/1279

>  <% Inhibition n=1 48h [%]>
6.9

$$$$
>  <compound>
Cc1cccc(-c2noc(C3CCCN3S(=O)(=O)c3cc(C)c(C)cc3C)n2)c1 (stereo not drawn)

>  <target.entity>
G. duodenalis BRIS/91/HEPU/1279

>  <% Inhibition n=1 48h [%]>
0.0

$$$$
>  <compound>
O=C(c1nc2nc(-c3ccco3)cc(C(F)(F)F)n2n1)N1CCCCCC1

>  <target.entity>
G. duodenalis BRIS/91/HEPU/1279

>  <% Inhibition n=1 48h [%]>
19.8

$$$$
>  <compound>
COc1cccc(CNC(=O)C2CCCN(c3nccc4c(C)nn(C)c34)C2)c1 (stereo not drawn)

>  <target.entity>
G. duodenalis BRIS/91/HEPU/1279

>  <% Inhibition n=1 48h [%]>
0.0

$$$$
>  <compound>
O=C(Cc1ccccc1F)N1CCC(Nc2cccnc2)C1 (stereo not drawn)

>  <target.entity>
G. duodenalis BRIS/91/HEPU/1279

>  <% Inhibition n=1 48h [%]>
18.5

$$$$
>  <compound>
COc1ccc(CN2CCCN(C(=O)c3cn4ccc(C)cc4n3)CC2)cc1

>  <target.entity>
G. duodenalis BRIS/91/HEPU/1279

>  <% Inhibition n=1 48h [%]>
0.0

$$$$
>  <compound>
COC(=O)c1c(NC(=O)Cn2nc(C(F)(F)F)c(Br)c2C)sc2c1CCCC2

>  <target.entity>
G. duodenalis BRIS/91/HEPU/1279

>  <% Inhibition n=1 48h [%]>
23.2

$$$$
>  <compound>
CNC(=O)N1CCC(c2nc(C)c(C(=O)NCCCOC)s2)CC1

>  <target.entity>
G. duodenalis BRIS/91/HEPU/1279

>  <% Inhibition n=1 48h [%]>
6.4

$$$$
>  <compound>
COc1ccccc1-c1noc(Cn2cnc3c(nnn3Cc3ccccc3)c2=O)n1

>  <target.entity>
G. duodenalis BRIS/91/HEPU/1279

>  <% Inhibition n=1 48h [%]>
6.5

$$$$
>  <compound>
COc1ccc2oc(-c3noc(C(NC(=O)c4ccco4)C(C)C)n3)c(C)c2c1 (stereo not drawn)

>  <target.entity>
G. duodenalis BRIS/91/HEPU/1279

>  <% Inhibition n=1 48h [%]>
9.9

$$$$

###

Test system: Neonatal foreskin fibroblast (NFF) cells
experiment.summary: Mammalian cell cytotoxicity assay (sulforhodamine B)
Assay type: cell-based, human
assay.setup: Homo sapiens, NFF; 20 µM; ±SD

>  <molecule>
Cc1nn(-c2ccccc2)c2sc(C(=O)N3CCCCC3)cc12

>  <inhibition at 20 µM [%]>
26.9

$$$$
>  <molecule>
Cc1ccc(NC(=O)CN2C(=O)C3CCCCN3c3ccc(C(=O)N4CCCC4)cc32)cc1 (stereo not shown)

>  <inhibition at 20 µM [%]>
16.6

$$$$
>  <molecule>
O=S1(=O)CCC(n2cc(-c3cnn(-c4ccccc4)c3)cn2)C1 (stereo not shown)

>  <inhibition at 20 µM [%]>
16

$$$$
>  <molecule>
CCc1nnc2c3ccccc3nc(N3CCN(c4cccc(Cl)c4)CC3)n12

>  <inhibition at 20 µM [%]>
-0.2

$$$$
>  <molecule>
CC(=O)Nc1ccc([N+](=O)[O-])c2nonc12

>  <inhibition at 20 µM [%]>
98.5

$$$$
>  <molecule>
COc1ccccc1N1CCN(C(=O)c2cc3c(C)nn(-c4ccc(C)cc4)c3s2)CC1

>  <inhibition at 20 µM [%]>
46.7

$$$$
>  <molecule>
COc1ccc(Nc2cc(C)nc(N3CCN(C(=O)Nc4cccc(OC)c4)CC3)n2)cc1

>  <inhibition at 20 µM [%]>
35.2

$$$$

###

// % Inhibition n=1 48h lookup, one value per entry
Test system: G. duodenalis BRIS/91/HEPU/1279
experiment.summary: Primary Giardia screen at 10 µM (live-cell imaging, automated counting)
Assay type: cell-based, Giardia duodenalis
assay.setup: 48 h, first singlicate assay
value.kind: % Inhibition n=1 48h (%)

>  <compound>
COCCN1CCN(c2nc(-c3ccncc3)nc3c2CCC3)CC1

>  <meas.value>
15.0

$$$$
>  <compound>
CC(C)CCNC(=O)C1CCCCN1S(=O)(=O)c1ccc(F)cc1 (stereo not drawn)

>  <meas.value>
5.5

$$$$
>  <compound>
O=C(NCCCN1CCCC1)c1ccc2c(c1)N(CC(=O)N1CCCC1)C(=O)CO2

>  <meas.value>
0.0

$$$$
>  <compound>
O=C(CN1CCN(Cc2ccccc2)C1=O)NCc1ccc(Cl)cc1

>  <meas.value>
0.0

$$$$
>  <compound>
COc1ccc(-c2ncc3c(n2)CCN(C(=O)c2ccccc2C(F)(F)F)C3)cc1

>  <meas.value>
0.0

$$$$
>  <compound>
Cc1nn(Cc2csc(-c3ccsc3)n2)c(C)c1S(=O)(=O)N1CCc2ccccc21

>  <meas.value>
7.1

$$$$
>  <compound>
COc1ccc(-n2nnc(-c3nsc(Nc4ccc(Cl)cc4)n3)c2C)cc1

>  <meas.value>
11.6

$$$$
>  <compound>
CC(NC(=O)Cn1nc(-c2ccccc2)c2ccccc2c1=O)c1ccccc1 (stereo not drawn)

>  <meas.value>
3.0

$$$$
>  <compound>
COC(=O)c1cccc2c1CCCN2C(=O)C1CC(=O)N(CCc2ccccc2)C1 (stereo not drawn)

>  <meas.value>
0.0

$$$$
>  <compound>
Cn1nc(C(=O)NCCCN2CCN(c3ccccc3)CC2)c2c1-c1ccccc1OC2

>  <meas.value>
0.0

$$$$
>  <compound>
O=C(Nc1nnc(S(=O)(=O)N2CCc3ccccc32)s1)c1ccccc1

>  <meas.value>
37.8

$$$$
>  <compound>
Cc1ccc(CN2CCN(C(=O)C3CCC3)c3cccnc32)cc1

>  <meas.value>
4.2

$$$$
>  <compound>
Cc1ccc2oc(N3CCN(C(=O)C(C)c4ccccc4)CC3)nc2n1 (stereo not drawn)

>  <meas.value>
24.1

$$$$
>  <compound>
C=CCc1ccc(OCC(O)CN2C(=O)NC(C)(c3ccccn3)C2=O)c(OC)c1 (stereo not drawn)

>  <meas.value>
48.2

$$$$
>  <compound>
Cc1ccc(NC(=O)Cn2nnc(-c3nc(-c4ccccc4)no3)c2N)cc1C

>  <meas.value>
2.5

$$$$
>  <compound>
Cc1ccc(S(=O)(=O)N2CCCN(C(=O)c3c[nH]nc3-c3ccc(F)cc3)CC2)cc1

>  <meas.value>
40.4

$$$$
>  <compound>
Cc1ccsc1CCNC(=O)c1cnn2c(=O)c3c(n(C)c12)CCN(Cc1ccccc1)C3

>  <meas.value>
17.0

$$$$
>  <compound>
COc1ccc(C2=Nc3ccccc3N(CC(=O)Nc3cccc(F)c3)C(=O)C2)cc1

>  <meas.value>
54.2

$$$$
